- system: Glutamate NMDA receptor (Rattus norvegicus) (UniProt P35439+Q00959+Q00960+Q00961+Q62645+Q8VHN2+Q9R1M7)
- test description: Displacement of [3H]glycine from NMDA receptor in rat cortical membrane at 100 uM
- Format: cell membranes
endpoint name: Activity (%)

(I) CCOC(=O)c1nn2c(=O)[nH]c3cc(Cl)c([N+](=O)[O-])cc3c2c1C(=O)OCC
(II) CCOC(=O)c1cccc(NC(=O)Nc2cc3c(cc2Cl)[nH]c(=O)n2nc(C(=O)OCC)c(C(=O)OCC)c32)c1
(III) CCOC(=O)c1nn2c(=O)[nH]c3cc(Cl)c(-n4cnnc4)cc3c2c1C(=O)OCC
Exam item: Sort (3 compounds) by Activity: min first. Give the labels in the order specified.
Marked response: II, III, I
(II: 0%, III: 18%, I: 30%)

(P) CCNC(=O)Nc1cc2c(cc1Cl)[nH]c(=O)n1nc(C(=O)OCC)c(C(=O)OCC)c21
(Q) CCOC(=O)c1nn2c(=O)[nH]c3cc(Cl)c(NC(=O)NCc4ccccc4)cc3c2c1C(=O)OCC
Exam item: Identify the entry with the smaller Activity: P or Q . Which one? Tell me its label.
Marked response: Q

---

- system: Glutamate NMDA receptor
- test description: Displacement of [3H]glycine from NMDA receptor in rat cortical membrane
pKi: −log10 of the molar value.
endpoint name: pKi

(a) O=C(Nc1ccc(C(=O)O)cc1)Nc1cc2c(cc1Cl)[nH]c(=O)n1nc(C(=O)O)c(C(=O)O)c21
(b) O=C(O)c1nn2c(=O)[nH]c3cc(Cl)c([N+](=O)[O-])cc3c2c1Cl
(c) O=C(O)c1nn2c(=O)[nH]c3cc(Cl)c([N+](=O)[O-])cc3c2c1[N+](=O)[O-]
Exam item: # rank_down: sort by pKi, max first Write out the labels following the order that was asked for.
Marked response: b, c, a

---

- test description: Displacement of [3H]kainate from KA receptor in rat cortical membrane
- Type: cell membranes
endpoint name: IC50 (µM)

(I) CCOC(=O)c1c(C(=O)O)nn2c(=O)[nH]c3cc(Cl)c([N+](=O)[O-])cc3c12
(II) O=C(O)CNC(=O)Nc1cc2c(cc1Cl)[nH]c(=O)n1nc(C(=O)O)c(C(=O)O)c21
(III) O=C(O)c1nn2c(=O)[nH]c3cc(Cl)c([N+](=O)[O-])cc3c2c1C(=O)O
Exam item: Which order do the above molecules take when sorted by rising IC50? Smallest first. Answer by naming the labels in the order asked.
Marked response: II, III, I

---

- system: Glutamate NMDA receptor (Rattus norvegicus) (UniProt P35439+Q00959+Q00960+Q00961+Q62645+Q8VHN2+Q9R1M7)
- test description: Displacement of [3H]glycine from NMDA receptor in rat cortical membrane at 100 uM
- Format: cell membranes
endpoint name: Activity (%)

(P) CCOC(=O)c1nn2c(=O)[nH]c3cc(Cl)c(NC(=O)NC(Cc4ccccc4)C(=O)OC)cc3c2c1C(=O)OCC (racemic)
(Q) CCOC(=O)CNC(=O)Nc1cc2c(cc1Cl)[nH]c(=O)n1nc(C(=O)OCC)c(C(=O)OCC)c21
(R) CCOC(=O)c1ccc(NC(=O)Nc2cc3c(cc2Cl)[nH]c(=O)n2nc(C(=O)OCC)c(C(=O)OCC)c32)cc1
Exam item: Parameters: sort_field (Activity), sort_dir (desc). As an answer, provide the labels arranged in the order called for.
Marked response: Q, P, R
